Molecular target: tooth pellicle (thin film derived from salivary glycoproteins, formed in a human mouth) (human)
Assay: phage ELISA on pellicle-coated HAP disks, anti-M13-HRP; no-phage control 0.218
readout_kind: O.D.450
Reply: number alone, nothing else.

Examples from the recorded data:
NGPDMVQSVGKHKNS [Pell 10]	0.729
QHCITERLHPPCTK [Pell 17]	0.614
ASVSNYPPIHHLATSNTTVN [Pell 2]	0.75
EPTHPTMRAQMHQSLRSSSP [Pell 8]	0.712
AHPESLGIKYALDGNSDPHA [Pell 1]	0.739

Prompt line: State the recorded O.D.450 for this entry: TPCAPASFNPHCSR [Pell 18]
Response line: 0.416

Prompt line: State the recorded O.D.450 for this entry: NPTATPHMKDPMHSNAHSSA [Pell 14]
Response line: 0.7

Ref: patent US20100247589A1
